Test: Partition coefficient was evaluated using method of Morgiuchi et al
Assay type: physicochemical
Details: octanol/water; read-out: mLog P
QUANTITY: logP
Please give the numeric answer without any surrounding text.

For record CCCCCCC(C)OC(=O)c1cnc2ccccc2n1 (configuration not stated) the listed logP is 2.7

For record "O=C(OCc1ccccc1)c1cnccn1" the listed logP is 0.94

For record "O=C(OCc1ccc([N+](=O)[O-])cc1)c1cnc2ccccc2n1" the listed logP is 2.27

For record "O=C(OCc1ccc(C(F)(F)F)cc1)c1cnccn1" the listed logP is 1.87

For record "O=C(OCc1ccccc1[N+](=O)[O-])c1cnc2ccccc2n1" the listed logP is 2.27

For record "O=C(OCc1ccc([N+](=O)[O-])cc1)c1ccccc1" the listed logP is 3.45

For record "NC(=O)c1cnc2ccccc2n1" the listed logP is 0.13

For record "O=C(OCc1ccc([N+](=O)[O-])cc1)c1cnccn1" the listed logP is 0.99

For record "O=C(OCc1ccc([N+](=O)[O-])cc1)c1ccccn1" the listed logP is 2.29

For record "NNC(=O)c1cnc2ccccc2n1" the listed logP is 0.16

For record "CC(=O)OCc1ccc([N+](=O)[O-])cc1" the listed logP is 2.02

For record "CCCCCCCCOC(=O)c1cnc2ccccc2n1" the listed logP is 2.61

* * *

Test: Partition coefficient was evaluated using method of Morgiuchi et al
Type: physicochemical
Conditions: octanol/water; read-out: mLog P
Threshold rule: logP greater than or equal to 1 is yes (1); below that, no (0).

Reported logP reaches at least 1 for "CC(=O)Oc1ccc(COC(=O)c2cnccn2)cc1" ?
no (0)

Reported logP reaches at least 1 for "CCCOC(=O)c1cnc2ccccc2n1" ?
yes (1)

Reported logP reaches at least 1 for "CC(=O)OCc1ccc(OC(C)=O)cc1" ?
yes (1)

Reported logP reaches at least 1 for "CC(=O)Oc1ccc(COC(=O)c2cnc3ccccc3n2)cc1" ?
yes (1)

Reported logP reaches at least 1 for "COC(=O)c1cnc2ccccc2n1" ?
no (0)

Reported logP reaches at least 1 for "CC(=O)Oc1ccc(COC(=O)c2ccccc2)cc1" ?
yes (1)

* * *

Task for the reader: assign each of the following compounds its reported MIC.
Test: Minimum inhibitory concentration against MAC NJ211 using Middlebrook 7H9 with glycerol and OADC enrichment
Format: functional
Settings: Mycobacterium avium

For record "O=C(OCc1ccc([N+](=O)[O-])cc1)c1cnc2ccccc2n1" the listed MIC is > 128 µg/mL

For record "CC(=O)Oc1ccc(COC(=O)c2ccccc2)cc1" the listed MIC is 128 µg/mL

For record "O=C(OCc1ccc([N+](=O)[O-])cc1)c1cnccn1" the listed MIC is > 128 µg/mL

For record "CC(=O)Oc1ccc(COC(=O)c2cnc3ccccc3n2)cc1" the listed MIC is 16 µg/mL

For record "O=C(OCc1ccc([N+](=O)[O-])cc1)c1ccccn1" the listed MIC is > 128 µg/mL

For record "NC(=O)c1cnc2ccccc2n1" the listed MIC is > 128 µg/mL

For record "CCCCCCCCOC(=O)c1cnc2ccccc2n1" the listed MIC is 128 µg/mL

For record "O=C(OCc1ccccc1[N+](=O)[O-])c1cnccn1" the listed MIC is > 128 µg/mL

For record "O=C(OCc1ccccc1)c1cnccn1" the listed MIC is > 128 µg/mL

For record "COC(=O)c1cnc2ccccc2n1" the listed MIC is > 128 µg/mL

For record "CC(=O)OCc1ccc(OC(C)=O)cc1" the listed MIC is 128 µg/mL

For record "NNC(=O)c1cnc2ccccc2n1" the listed MIC is > 128 µg/mL

For record "CC(=O)OCc1ccc([N+](=O)[O-])cc1" the listed MIC is > 128 µg/mL

For record O=C(O)c1cnccn1 [PYRAZINOIC ACID] the listed MIC is > 128 µg/mL

For record "O=C(O)c1cnc2ccccc2n1" the listed MIC is > 128 µg/mL

For record "O=C(OCc1ccc(C(F)(F)F)cc1)c1cnccn1" the listed MIC is > 128 µg/mL

For record "CCCOC(=O)c1cnc2ccccc2n1" the listed MIC is 128 µg/mL

For record "CC(=O)Oc1ccc(COC(=O)c2cnccn2)cc1" the listed MIC is 16 µg/mL

For record "O=C(OCc1ccccc1[N+](=O)[O-])c1cnc2ccccc2n1" the listed MIC is > 128 µg/mL

For record CCCCCCC(C)OC(=O)c1cnc2ccccc2n1 (stereo not given) the listed MIC is 128 µg/mL

Cited source: ChEMBL document CHEMBL1135682
